# credit: paper PMC10397247

- TARGET ENTITY: T1, APC9806-AA
- T1 chain: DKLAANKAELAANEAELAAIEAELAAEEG
- MEASUREMENT NOTES: two-hybrid library CCmax;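 further: natural log of median RNA to DNA barcode read ratio; higher means stronger binding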
- REPORTED CONDITIONS: mean of both orientations
MEASUREMENT KIND: interaction score

- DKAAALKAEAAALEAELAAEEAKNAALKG [APC3265-AA]: -1.38
- DELAANEAKNAALKAKLAAIKAELAAEEG [APC8516-AA]: -1.63
- DKLAANKAEAAALEAKLAANKAKLAAIKG [APC9291-AA]: -1.78
- DKNAALKAELAAIEAELAAIEAKLAANKG [APC5009-AA]: -1.58
- DKLAANKAKLAAIKAENAALEAKLAAIKG [APC9141-AA]: -1.67
- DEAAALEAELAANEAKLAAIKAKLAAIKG [APC2811-AA]: -1.74
- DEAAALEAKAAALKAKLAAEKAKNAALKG [APC2375-AA]: -1.72
- DELAANEAENAALEAELAAIEAKLAAIKG [APC8401-AA]: -1.46
- DKLAANKAKLAAIKAELAANEAEAAALEG [APC9182-AA]: -1.59
- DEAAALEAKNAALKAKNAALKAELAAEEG [APC2556-AA]: -2.15
- DELAAIEAKNAALKAENAALEAEAAALEG [APC542-AA]: -1.91
